# target_entity: panel of 60 human kinases (Homo sapiens)
# Construct: purchased Reaction Biology Corp
# experiment_description: Radiolabeled ATP kinase assay, panel of 60 kinases (Table S5)
# Assay type: biochemical
# cond: DDR1; 0.1 μM; 10 μM ATP; read-out: % Enzyme Activity (relative to DSMO controls)
property_label: remaining activity at 0.1 µM (%)
Quick note: give the figure in %, leave out the unit.

CN1CCN(Cc2ccc(-c3cnc4[nH]cc(-c5ccncc5)c4c3)cc2)CC1 | 79.7
CN1CCN(Cc2ccc(-c3cnc4[nH]cc(-c5cccc(Cl)c5)c4c3)cc2)CC1 | 82
Cc1nn(C)c(C)c1-c1c[nH]c2ncc(-c3ccc(CN4CCN(C)CC4)cc3)cc12 | 76.5
CN1CCN(Cc2ccc(-c3cnc4[nH]cc(-c5ccc6c(c5)OCCO6)c4c3)cc2)CC1 | 57.4
CN1CCN(Cc2ccc(-c3cnc4[nH]cc(-c5ccccc5Cl)c4c3)cc2)CC1 | 35.6
CN1CCN(Cc2ccc(-c3cnc4[nH]cc(-c5cnn(Cc6ccccc6)c5)c4c3)cc2)CC1 | 38.3
CN1CCN(Cc2ccc(-c3cnc4[nH]cc(-c5ccoc5)c4c3)cc2)CC1 | 75.2
COc1ccccc1-c1c[nH]c2ncc(-c3ccc(CN4CCN(C)CC4)cc3)cc12 | 68.1

Turning to the following compound.
Q. Request the reported remaining activity at 0.1 µM associated with CN1CCN(Cc2ccc(-c3cnc4[nH]cc(-c5ccc6[nH]ccc6c5)c4c3)cc2)CC1 [Compound 1, reference compound]
A. 47.5

====

# target_entity: panel of 60 human kinases (Homo sapiens)
# Construct: purchased Reaction Biology Corp
# experiment_description: Radiolabeled ATP kinase assay, panel of 60 kinases (Table S5)
# Assay type: biochemical
# cond: GCK/MAP4K1; 0.1 μM; 10 μM ATP; read-out: % Enzyme Activity (relative to DSMO controls)
Under this convention, true denotes remaining activity at 0.1 µM strictly below 9% and false denotes remaining activity at 0.1 µM at or above 9%.

# example entries with known answers
CN1CCN(Cc2ccc(-c3cnc4[nH]cc(-c5cnn(Cc6ccccc6)c5)c4c3)cc2)CC1 | false
CN1CCN(Cc2ccc(-c3cnc4[nH]cc(-c5ccc6c(c5)OCCO6)c4c3)cc2)CC1 | false
Cc1nn(C)c(C)c1-c1c[nH]c2ncc(-c3ccc(CN4CCN(C)CC4)cc3)cc12 | false

Turning to the following compound.
Q. Hello, is remaining activity at 0.1 µM of the following compound strictly smaller than 9%? `CN1CCN(Cc2ccc(-c3cnc4[nH]cc(-c5cccc(Cl)c5)c4c3)cc2)CC1`
A. true

====

Property: % Enzyme Activity Remaining (relative to DMSO controls), MLK3/MAP3K11, Data 2; scope: individual compounds
# target_entity: MLK3/MAP3K11 (Homo sapiens, UniProt Q16584)
# Construct: purchased Reaction Biology Corp
# Sequence (Q16584 whole entry): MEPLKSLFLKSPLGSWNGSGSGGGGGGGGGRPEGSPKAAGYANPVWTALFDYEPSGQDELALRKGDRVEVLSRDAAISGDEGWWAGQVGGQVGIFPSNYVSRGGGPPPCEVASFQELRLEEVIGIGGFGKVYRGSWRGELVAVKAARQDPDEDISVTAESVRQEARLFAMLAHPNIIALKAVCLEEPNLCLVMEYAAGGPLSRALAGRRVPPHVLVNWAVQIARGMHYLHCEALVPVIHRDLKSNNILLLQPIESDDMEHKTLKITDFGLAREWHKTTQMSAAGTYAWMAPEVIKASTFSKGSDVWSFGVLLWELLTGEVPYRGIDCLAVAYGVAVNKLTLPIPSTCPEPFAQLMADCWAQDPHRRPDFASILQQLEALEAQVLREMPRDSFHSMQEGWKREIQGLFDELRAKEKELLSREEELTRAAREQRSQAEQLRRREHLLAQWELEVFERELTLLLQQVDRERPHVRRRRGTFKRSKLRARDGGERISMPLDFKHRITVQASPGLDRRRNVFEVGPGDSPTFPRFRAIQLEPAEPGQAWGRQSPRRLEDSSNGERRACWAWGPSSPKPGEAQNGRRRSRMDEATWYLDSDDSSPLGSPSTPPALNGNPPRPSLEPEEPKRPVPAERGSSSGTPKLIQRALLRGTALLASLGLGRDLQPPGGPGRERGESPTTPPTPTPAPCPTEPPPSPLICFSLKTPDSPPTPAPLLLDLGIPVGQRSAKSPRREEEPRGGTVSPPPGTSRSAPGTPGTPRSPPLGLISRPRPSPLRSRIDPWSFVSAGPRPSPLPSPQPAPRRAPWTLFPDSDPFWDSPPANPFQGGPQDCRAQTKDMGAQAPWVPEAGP
# experiment_description: Radiolabeled ATP kinase assay (Reaction Biology Corp.), MLK3
# Assay type: biochemical
# cond: [Cmpd] 0.1 μM; 10 μM ATP
Dear colleague, please send the value followed by its unit.

Known % Enzyme Activity Remaining (relative to DMSO controls), MLK3/MAP3K11, Data 2 results, listed for orientation:
CN1CCN(Cc2ccc(-c3cnc4[nH]cc(-c5cnc(N)nc5)c4c3)cc2)CC1 | 75.32%
COc1cc(-c2c[nH]c3ncc(-c4ccc(CN5CCN(C)CC5)cc4)cc23)cc(OC)c1OC | 68.91%
CN1CCN(Cc2ccc(-c3cnc4[nH]cc(-c5ccc6[nH]ncc6c5)c4c3)cc2)CC1 | 32.45%

Turning to the following compound.
Q. Request the reported % Enzyme Activity Remaining (relative to DMSO controls), MLK3/MAP3K11, Data 2 associated with `CN1CCN(Cc2ccc(-c3cnc4[nH]cc(-c5cccc6c5oc5ccccc56)c4c3)cc2)CC1`
A. 93.44%
